Reference source: patent US8329712B2

# testSystem: HCV polymerase (NS5B570n-Con1) (Hepatitis C virus genotype 1b)
# Construct: contains a 21 amino acid deletion at the C-terminus relative to the full-length HCV polymerase; 6-histidine (N)
# methodDescription: HCV NS5B RNA polymerase activity assay (incorporation of radiolabeled UTP)
property: pIC50
The meaning of pIC50 here: minus log10 of the concentration in molar units.

# count of solved cases: 3
| inputSmiles | property | obsValue |
| --- | --- | --- |
| CC(C)(C)c1nc(-c2ccc(O)[nH]c2=O)c2ccc(-c3ccc(NS(C)(=O)=O)cc3)cc2n1 | pIC50 | 8.62 |
| CC(C)(C)c1nc(-n2ccc(=O)[nH]c2=O)c2ncc(-c3ccc(NS(C)(=O)=O)cc3)cc2n1 | pIC50 | 8.26 |
| CC(C)(C)c1nc(-c2ccc(O)[nH]c2=O)c2ccc(N3CC[C@H](CNS(C)(=O)=O)C3)cc2n1 | pIC50 | 8.46 |

*Q* HCV polymerase (NS5B570n-Con1) (Hepatitis C virus genotype 1b) / pIC50 / Cc1ccc(-c2nc(C(C)(C)C)nc3cc(-c4ccc(NS(C)(=O)=O)cc4)cnc23)c(=O)[nH]1 : value?
*A* 8.01
